For each entry below, report its Average ZIP synergy score value.
System: SA4 cell line
Experiment summary: Drug combination testing with concentration matrices, SynergyFinder 2.0
Type: cell-based
Run parameters: combination with anagrelide, seven-concentration matrices
Respond with the number and no other words.

Which Average ZIP synergy score value is on record for NS(=O)(=O)OC[C@@H]1C[C@@H](n2ccc3c(N[C@H]4CCc5ccccc54)ncnc32)C[C@@H]1O [Pevonedistat, pevonedistat] ? 7.8

Which Average ZIP synergy score value is on record for CN(C)CC#Cc1ccc(OCCCc2sc(N3CCc4cccc(C(=O)Nc5nc6ccccc6s5)c4C3)nc2C(=O)O)c(F)c1 [A-1155463] ? 11.1

Which Average ZIP synergy score value is on record for Cc1nc(Nc2n[nH]c3c2CN(C(=O)N[C@H](CN(C)C)c2ccccc2)C3(C)C)c2sccc2n1 [PF-03758309] ? 16.8

Which Average ZIP synergy score value is on record for CO[C@H]1C[C@@H]2CC[C@@H](C)[C@@](O)(O2)C(=O)C(=O)N2CCCC[C@H]2C(=O)O[C@H]([C@H](C)C[C@@H]2CC[C@@H](OC(=O)C(C)(CO)CO)[C@H](OC)C2)CC(=O)[C@H](C)/C=C(\C)[C@@H](O)[C@@H](OC)C(=O)[C@H](C)C[C@H](C)/C=C/C=C/C=C/1C [Temsirolimus, temsirolimus] ? 3.6

Which Average ZIP synergy score value is on record for CCN1C(=O)CNc2ncc(-c3ccc(-c4nc[nH]n4)nc3C)nc21 [CC-115] ? 4.1

Which Average ZIP synergy score value is on record for Cn1cc(CNCC2CCN(c3ncc(C(=O)NO)cn3)CC2)c2ccccc21 [Quisinostat, quisinostat] ? 8.7

Which Average ZIP synergy score value is on record for CC1(C)CCC(c2ccc(Cl)cc2)=C(CN2CCN(c3ccc(C(=O)NS(=O)(=O)c4ccc(N[C@H](CCN5CCOCC5)CSc5ccccc5)c(S(=O)(=O)C(F)(F)F)c4)cc3)CC2)C1 [Navitoclax, navitoclax] ? 8

Source of measurements: patent US20250041294A1
